Entries and their EC50 values follow.
- System: BrCr Lab Strain of EV-A71
- test name: Antiviral activity against the BrCr lab strain of EV-A71 in RD cells (CPE reduction, MTS/PMS)
- Assay type: cell-based
- condition description: Enterovirus A, EVA71, RD, BrCr lab strain, RD cells; 50% reduction of virus-induced CPE; read-out: EC50

compound	EC50, µM
O=C(CCOCC(COCCC(=O)NC(Cc1c[nH]c2c(-c3cccc(C(=O)O)c3)cccc12)C(=O)O)(COCCC(=O)NC(Cc1c[nH]c2c(-c3cccc(C(=O)O)c3)cccc12)C(=O)O)COCCC(=O)NC(Cc1c[nH]c2c(-c3cccc(C(=O)O)c3)cccc12)C(=O)O)NC(Cc1c[nH]c2c(-c3cccc(C(=O)O)c3)cccc12)C(=O)O (stereo not shown)	3.1
O=C(CCC(CCC(=O)NC(Cc1c[nH]c2c(-c3cccc(C(=O)O)c3)cccc12)C(=O)O)(CCC(=O)NC(Cc1c[nH]c2c(-c3cccc(C(=O)O)c3)cccc12)C(=O)O)[N+](=O)[O-])NC(Cc1c[nH]c2c(-c3cccc(C(=O)O)c3)cccc12)C(=O)O (stereo not shown)	54.8
O=C(CCC(CCC(=O)NC(Cc1c(-c2cc(C(=O)O)cc(C(=O)O)c2)[nH]c2ccccc12)C(=O)O)(CCC(=O)NC(Cc1c(-c2cc(C(=O)O)cc(C(=O)O)c2)[nH]c2ccccc12)C(=O)O)[N+](=O)[O-])NC(Cc1c(-c2cc(C(=O)O)cc(C(=O)O)c2)[nH]c2ccccc12)C(=O)O (stereo not shown) [AL-470, reference compound]	0.3
O=C(CCOCC(COCCC(=O)NC(Cc1c(-c2cc(C(=O)O)cc(C(=O)O)c2)[nH]c2c(-c3cc(C(=O)O)cc(C(=O)O)c3)cccc12)C(=O)O)(COCCC(=O)NC(Cc1c(-c2cc(C(=O)O)cc(C(=O)O)c2)[nH]c2c(-c3cc(C(=O)O)cc(C(=O)O)c3)cccc12)C(=O)O)COCCC(=O)NC(Cc1c(-c2cc(C(=O)O)cc(C(=O)O)c2)[nH]c2c(-c3cc(C(=O)O)cc(C(=O)O)c3)cccc12)C(=O)O)NC(Cc1c(-c2cc(C(=O)O)cc(C(=O)O)c2)[nH]c2c(-c3cc(C(=O)O)cc(C(=O)O)c3)cccc12)C(=O)O (stereo not shown)	0.04

----------
Entries and their CC50 values follow.
- test name: in vitro
- condition description: human

compound	CC50
O=C(CCC(CCC(=O)NC(Cc1c[nH]c2c(-c3cccc(C(=O)O)c3)cccc12)C(=O)O)(CCC(=O)NC(Cc1c[nH]c2c(-c3cccc(C(=O)O)c3)cccc12)C(=O)O)[N+](=O)[O-])NC(Cc1c[nH]c2c(-c3cccc(C(=O)O)c3)cccc12)C(=O)O (stereo not drawn) [Compound 14]	> 84 µM
O=C(CCOCC(COCCC(=O)NC(Cc1c(-c2ccc(C(=O)O)cc2)[nH]c2c(-c3ccc(C(=O)O)cc3)cccc12)C(=O)O)(COCCC(=O)NC(Cc1c(-c2ccc(C(=O)O)cc2)[nH]c2c(-c3ccc(C(=O)O)cc3)cccc12)C(=O)O)COCCC(=O)NC(Cc1c(-c2ccc(C(=O)O)cc2)[nH]c2c(-c3ccc(C(=O)O)cc3)cccc12)C(=O)O)NC(Cc1c(-c2ccc(C(=O)O)cc2)[nH]c2c(-c3ccc(C(=O)O)cc3)cccc12)C(=O)O (stereo not drawn) [Compound 32]	> 100 µM
O=C(CCOCC(COCCC(=O)NC(Cc1c[nH]c2c(-c3ccc(C(=O)O)cc3)cccc12)C(=O)O)(COCCC(=O)NC(Cc1c[nH]c2c(-c3ccc(C(=O)O)cc3)cccc12)C(=O)O)COCCC(=O)NC(Cc1c[nH]c2c(-c3ccc(C(=O)O)cc3)cccc12)C(=O)O)NC(Cc1c[nH]c2c(-c3ccc(C(=O)O)cc3)cccc12)C(=O)O (stereo not drawn) [Compound 22]	> 100 µM
